Data origin: ChEMBL document CHEMBL3862016

pIC50: −log10 of the molar value.
Recorded pIC50 values (Histone deacetylase 1 (Homo sapiens)) are given below.
Quantity Kind: pIC50

1) CC1(C)C(=O)N(c2ccc(C#N)c(C(F)(F)F)c2)C(=S)N1c1ccc(C(=O)OCCCCCC(=O)NO)c(F)c1 :: 5.50
2) CC1(C)C(=O)N(c2ccc(C#N)c(C(F)(F)F)c2)C(=S)N1c1ccc(C(=O)Nc2ccccc2N)c(F)c1 :: 5.21
3) CC1(C)C(=O)N(c2ccc(C#N)c(C(F)(F)F)c2)C(=S)N1c1ccc(C(=O)NCCOCCC(=O)NO)c(F)c1 :: 4.24

---

# Experimental Target: Histone deacetylase 1 (Homo sapiens)
# Sequence (Q13547 whole entry): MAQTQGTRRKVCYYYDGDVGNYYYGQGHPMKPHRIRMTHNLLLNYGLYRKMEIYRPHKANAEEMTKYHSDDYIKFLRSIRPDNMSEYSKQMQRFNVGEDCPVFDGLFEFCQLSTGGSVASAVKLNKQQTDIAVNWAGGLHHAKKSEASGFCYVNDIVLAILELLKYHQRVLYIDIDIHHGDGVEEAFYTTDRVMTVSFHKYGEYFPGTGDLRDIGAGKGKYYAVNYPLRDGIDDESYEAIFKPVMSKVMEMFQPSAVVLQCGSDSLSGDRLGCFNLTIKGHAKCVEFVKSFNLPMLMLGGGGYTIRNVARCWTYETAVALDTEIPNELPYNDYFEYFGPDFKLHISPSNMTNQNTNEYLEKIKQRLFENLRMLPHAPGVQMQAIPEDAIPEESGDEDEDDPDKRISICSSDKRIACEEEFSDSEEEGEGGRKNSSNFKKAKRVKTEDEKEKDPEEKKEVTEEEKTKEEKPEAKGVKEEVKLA
# Experiment Description: Inhibition of HDAC1 (unknown origin) assessed as inhibition of fluorogenic peptide deacetylation
Quantity Kind: IC50

1) CC1(C)C(=O)N(c2ccc(C#N)c(C(F)(F)F)c2)C(=S)N1c1ccc(/C=C/C(=O)Nc2ccccc2N)c(F)c1 :: > 100 µM
2) CC1(C)C(=O)N(c2ccc(C#N)c(C(F)(F)F)c2)C(=S)N1c1ccc(C(=O)NCCCCCCc2ccc(C(=O)C(F)(F)F)s2)c(F)c1 :: > 10 µM
3) CC1(C)C(=O)N(c2ccc(C#N)c(C(F)(F)F)c2)C(=S)N1c1ccc(C(=O)NCCCCCC(=O)NO)c(F)c1 :: 2.89 µM
4) CC1(C)C(=O)N(c2ccc(C#N)c(C(F)(F)F)c2)C(=S)N1c1ccc(Cn2ccc3cc(/C=C/C(=O)NO)ccc32)c(F)c1 :: > 100 µM

---

# Experiment Description: AUClast in mouse at 10 mg/kg, sc by HPLC-MS analysis
# Type: ADME, organism-based
# Design: dose 10 mg/kg, time 0 - last, route subcutaneous
# Test Conditions: in vivo
Quantity Kind: AUC(0-t) (µM·h)

1) CC1(C)C(=O)N(c2ccc(C#N)c(C(F)(F)F)c2)C(=S)N1c1ccc(C(=O)NCCCCCC(=O)NO)c(F)c1 :: 1.03

---

# Experimental Target: Protein deacetylase HDAC6 (Homo sapiens, UniProt Q9UBN7)
# Sequence (Q9UBN7 whole entry): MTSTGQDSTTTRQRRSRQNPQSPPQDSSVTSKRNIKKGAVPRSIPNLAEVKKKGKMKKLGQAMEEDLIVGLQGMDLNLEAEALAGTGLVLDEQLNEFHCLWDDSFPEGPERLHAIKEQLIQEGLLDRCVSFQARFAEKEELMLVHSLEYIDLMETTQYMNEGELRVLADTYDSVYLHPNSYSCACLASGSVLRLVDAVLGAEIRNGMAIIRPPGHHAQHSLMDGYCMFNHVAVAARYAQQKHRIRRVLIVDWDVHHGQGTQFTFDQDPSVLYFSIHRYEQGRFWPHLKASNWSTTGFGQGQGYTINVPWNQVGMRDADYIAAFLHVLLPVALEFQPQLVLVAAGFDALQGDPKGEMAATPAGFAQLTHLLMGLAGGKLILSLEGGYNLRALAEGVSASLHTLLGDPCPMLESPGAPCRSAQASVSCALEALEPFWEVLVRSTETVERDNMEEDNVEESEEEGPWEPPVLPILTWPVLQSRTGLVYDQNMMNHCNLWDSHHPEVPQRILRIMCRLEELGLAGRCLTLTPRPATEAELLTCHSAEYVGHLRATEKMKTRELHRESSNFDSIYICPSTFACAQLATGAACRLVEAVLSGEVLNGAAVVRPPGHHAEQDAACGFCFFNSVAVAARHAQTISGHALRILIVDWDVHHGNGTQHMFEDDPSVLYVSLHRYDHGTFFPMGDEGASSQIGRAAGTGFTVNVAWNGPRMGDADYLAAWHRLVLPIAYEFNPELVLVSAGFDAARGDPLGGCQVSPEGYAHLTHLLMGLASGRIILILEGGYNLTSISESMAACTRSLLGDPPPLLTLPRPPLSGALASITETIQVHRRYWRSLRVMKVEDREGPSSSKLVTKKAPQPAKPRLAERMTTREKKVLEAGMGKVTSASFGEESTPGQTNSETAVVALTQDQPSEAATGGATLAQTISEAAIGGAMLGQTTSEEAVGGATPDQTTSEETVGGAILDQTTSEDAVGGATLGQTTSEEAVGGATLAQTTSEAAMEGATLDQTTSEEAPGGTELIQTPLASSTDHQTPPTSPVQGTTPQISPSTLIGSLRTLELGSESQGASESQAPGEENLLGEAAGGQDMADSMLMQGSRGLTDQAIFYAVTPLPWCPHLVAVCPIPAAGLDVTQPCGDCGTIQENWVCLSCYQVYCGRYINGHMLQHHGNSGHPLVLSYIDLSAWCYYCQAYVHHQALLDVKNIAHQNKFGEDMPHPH
pIC50: −log10 of the molar value.
Label scheme for pIC50: lower than 5 is not satisfied, 5 and above is satisfied.

1. CC1(C)C(=O)N(c2ccc(C#N)c(C(F)(F)F)c2)C(=S)N1c1ccc(/C=C/C(=O)Nc2ccccc2N)c(F)c1 :: not satisfied
2. CC1(C)C(=O)N(c2ccc(C#N)c(C(F)(F)F)c2)C(=S)N1c1ccc(C(=O)Nc2ccccc2N)c(F)c1 :: not satisfied
3. CC1(C)C(=O)N(c2ccc(C#N)c(C(F)(F)F)c2)C(=S)N1c1ccc(C(=O)OCCCCCC(=O)NO)c(F)c1 :: satisfied
4. CC1(C)C(=O)N(c2ccc(C#N)c(C(F)(F)F)c2)C(=S)N1c1ccc(C(=O)NCCCCCC(=O)NO)c(F)c1 :: satisfied
5. CC1(C)C(=O)N(c2ccc(C#N)c(C(F)(F)F)c2)C(=S)N1c1ccc(C(=O)NCCCn2cccc(O)c2=O)c(F)c1 :: not satisfied
6. CC1(C)C(=O)N(c2ccc(C#N)c(C(F)(F)F)c2)C(=S)N1c1ccc(C(=O)NCCCNS(N)(=O)=O)c(F)c1 :: not satisfied
7. CC1(C)C(=O)N(c2ccc(C#N)c(C(F)(F)F)c2)C(=S)N1c1ccc(C(=O)NCCCCCCn2cccc(O)c2=S)c(F)c1 :: not satisfied
8. CC1(C)C(=O)N(c2ccc(C#N)c(C(F)(F)F)c2)C(=S)N1c1ccc(C(=O)NCCOCCC(=O)NO)c(F)c1 :: satisfied
9. CC1(C)C(=O)N(c2ccc(C#N)c(C(F)(F)F)c2)C(=S)N1c1ccc(C(=O)NCCCCCCc2ccc(C(=O)C(F)(F)F)s2)c(F)c1 :: not satisfied
